tested on: NCI-H460 (NSC lung cancer); experiment: NCI-60 screen (SRB, 48 h); conditions: Homo sapiens, NCI-H460
Test Readout: GI50 (nM)
// return numeric value only (unit: nM, not printed)

Chemical Smiles	GI50, nM
CC1(C)CC[C@]23CC[C@]4(C)[C@H](CC[C@@H]5[C@@]6(C)CCCNC(C)(C)[C@@H]6CC[C@]54C)[C@H]2[C@H]1OC3	650
C=C(C)[C@@H]1CC[C@]2(C)[C@H](C=CC3=C4C[C@@](C)(CO)CC[C@]4(C)CC[C@]32C)[C@@]1(C)CCCN	1710

Fill: GI50 (NCI-H460 (NSC lung cancer)) for this compound Cc1ccc(S(=O)(=O)OC[C@]23CCC(C)(C)C[C@H]2C2=CC[C@@H]4[C@@]5(C)CCCNC(C)(C)[C@@H]5CC[C@@]4(C)[C@]2(C)CC3)cc1
1770
